Target entity: Neurogenic locus notch homolog protein 2 (Homo sapiens) (UniProt Q04721)
Sequence (Q04721 whole entry, looked up): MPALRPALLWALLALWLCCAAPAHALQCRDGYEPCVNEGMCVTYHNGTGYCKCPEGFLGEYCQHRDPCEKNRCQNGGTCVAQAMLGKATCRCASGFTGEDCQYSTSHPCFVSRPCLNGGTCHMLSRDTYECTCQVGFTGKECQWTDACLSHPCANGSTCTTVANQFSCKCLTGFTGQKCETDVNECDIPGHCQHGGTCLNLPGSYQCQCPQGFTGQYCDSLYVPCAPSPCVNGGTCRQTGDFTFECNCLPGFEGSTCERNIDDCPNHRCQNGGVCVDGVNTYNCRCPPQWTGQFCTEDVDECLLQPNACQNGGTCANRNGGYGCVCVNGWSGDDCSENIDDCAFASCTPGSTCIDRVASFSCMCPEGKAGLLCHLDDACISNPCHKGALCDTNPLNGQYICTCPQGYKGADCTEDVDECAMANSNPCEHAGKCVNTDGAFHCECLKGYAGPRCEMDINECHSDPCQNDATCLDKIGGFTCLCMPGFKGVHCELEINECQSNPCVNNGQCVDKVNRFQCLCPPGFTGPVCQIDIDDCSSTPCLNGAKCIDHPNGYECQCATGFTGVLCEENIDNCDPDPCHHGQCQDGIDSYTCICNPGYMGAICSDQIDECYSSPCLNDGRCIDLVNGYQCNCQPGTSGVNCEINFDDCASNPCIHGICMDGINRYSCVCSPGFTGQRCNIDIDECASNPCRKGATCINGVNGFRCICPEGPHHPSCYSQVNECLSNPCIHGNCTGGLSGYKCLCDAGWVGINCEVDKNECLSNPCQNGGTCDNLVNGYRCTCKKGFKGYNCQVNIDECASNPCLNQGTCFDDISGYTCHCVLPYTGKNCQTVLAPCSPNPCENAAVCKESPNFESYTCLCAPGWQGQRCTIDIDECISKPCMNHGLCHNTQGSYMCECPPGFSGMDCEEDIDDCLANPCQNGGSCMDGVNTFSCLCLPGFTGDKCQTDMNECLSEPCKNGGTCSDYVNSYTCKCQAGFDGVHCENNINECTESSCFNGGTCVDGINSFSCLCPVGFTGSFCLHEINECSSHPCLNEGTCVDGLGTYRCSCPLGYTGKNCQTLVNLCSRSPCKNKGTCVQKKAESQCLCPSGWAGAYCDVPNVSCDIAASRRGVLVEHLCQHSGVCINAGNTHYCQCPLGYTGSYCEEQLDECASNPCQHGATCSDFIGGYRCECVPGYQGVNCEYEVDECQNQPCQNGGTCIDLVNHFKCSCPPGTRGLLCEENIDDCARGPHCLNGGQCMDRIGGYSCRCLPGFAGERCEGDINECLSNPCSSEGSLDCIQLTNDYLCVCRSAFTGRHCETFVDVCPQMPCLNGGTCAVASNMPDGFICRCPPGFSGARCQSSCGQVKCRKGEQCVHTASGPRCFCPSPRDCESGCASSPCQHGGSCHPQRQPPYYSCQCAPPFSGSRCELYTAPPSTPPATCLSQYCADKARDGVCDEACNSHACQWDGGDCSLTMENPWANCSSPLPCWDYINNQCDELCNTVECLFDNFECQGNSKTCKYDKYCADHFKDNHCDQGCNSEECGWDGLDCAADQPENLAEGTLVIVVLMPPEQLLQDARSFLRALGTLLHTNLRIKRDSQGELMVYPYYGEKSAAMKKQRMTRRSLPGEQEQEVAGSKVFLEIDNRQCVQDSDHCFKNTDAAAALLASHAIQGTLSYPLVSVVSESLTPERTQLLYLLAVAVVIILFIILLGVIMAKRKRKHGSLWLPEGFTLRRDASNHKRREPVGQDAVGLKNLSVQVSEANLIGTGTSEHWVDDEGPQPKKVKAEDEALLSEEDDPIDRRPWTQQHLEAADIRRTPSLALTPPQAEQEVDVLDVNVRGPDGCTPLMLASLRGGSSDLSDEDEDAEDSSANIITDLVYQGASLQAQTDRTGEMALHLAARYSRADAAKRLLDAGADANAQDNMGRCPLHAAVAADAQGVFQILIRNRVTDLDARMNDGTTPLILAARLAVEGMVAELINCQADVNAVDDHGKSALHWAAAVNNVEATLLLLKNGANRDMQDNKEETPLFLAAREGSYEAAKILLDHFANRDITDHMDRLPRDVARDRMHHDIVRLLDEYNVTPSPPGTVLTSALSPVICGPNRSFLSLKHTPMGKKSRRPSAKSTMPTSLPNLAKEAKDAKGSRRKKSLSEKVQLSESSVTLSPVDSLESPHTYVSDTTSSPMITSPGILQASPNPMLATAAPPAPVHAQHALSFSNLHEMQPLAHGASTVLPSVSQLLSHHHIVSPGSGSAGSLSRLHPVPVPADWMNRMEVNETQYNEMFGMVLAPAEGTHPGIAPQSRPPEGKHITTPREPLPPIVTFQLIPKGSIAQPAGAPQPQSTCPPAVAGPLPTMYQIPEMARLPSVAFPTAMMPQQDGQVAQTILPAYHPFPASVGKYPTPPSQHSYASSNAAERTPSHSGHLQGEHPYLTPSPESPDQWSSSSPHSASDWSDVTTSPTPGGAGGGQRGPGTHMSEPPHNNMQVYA
Test: small molecules binding Notch2 protein – biochemical, small-molecule microarray, 635 nm fluorescence, stem cell growth factors, primary screen (AID 1073)
Reported conditions: higher = more signal
We begin with a simple list: items and their reported composite z-score.

# Compound, composite z-score
measured = [
    ("CCOC(=O)C[C@H]1[C@H](OC(=O)c2ccc(C(=O)c3ccccc3)cc2)[C@@H](NC(=O)c2ccccc2)c2cc(OCCCO)ccc2N1C(=O)c1ccccc1", 0.783),
    ("CC(C)NC(=O)[C@@H]1c2ccccc2C(=O)N(C(C)C)[C@H]1c1ccc(CO)cc1", -0.78),
    ("COC(=O)[C@]1(CCC(=O)OC(C)(C)C)N=C(c2ccc(OCCCO)cc2)O[C@@H]1c1ccccc1", -0.668),
    ("C=C(CCCC)/C(=C/C[C@@H](OC(C)=O)c1cccc(OCCO)c1)c1cnc2ccccc2c1", 0.249),
    ("O=C1C2C=CC(C(O)COCc3ccccc3)N(Nc3ccc([N+](=O)[O-])cc3)C2C(=O)N1c1ccccc1 (centres undefined)", 1.57),
    ("O=C1OCCC/C=C\\[C@H]2OC34C=CCN(c5ccc6ccccc6c5)C(=O)[C@H]3N(CCCCCO)C(=O)[C@@H]4C12 (some centres undefined)", -0.367),
    ("COc1ccccc1CN1C(=O)c2ccccc2[C@@H](C(=O)NCc2ccccc2)[C@@H]1c1ccc(CO)cc1", 0.0668),
    ("NCCCCCCNC(=O)[C@H]1C[C@H]2C(=O)N[C@@H](Cc3ccccc3)C(=O)N2[C@H]1c1cccc(OCCO)c1", 0.427),
    ("C=CC[C@]1(C(N)=O)COC(c2ccc(OCCCO)cc2)=N1", 0.85),
    ("O=C1O[C@@H](c2ccccc2)[C@@H](c2ccccc2)N2[C@@H](c3ccccc3OCCO)[C@]3(C(=O)Nc4ccccc43)[C@@H](C(=O)O)[C@H]12", 0.522),
    ("CC1CC/C=C\\[C@H]2OC34C=CCN(Cc5ccccc5)C(=O)[C@H]3N(C(C)CO)C(=O)[C@@H]4C2C(=O)O1 (some centres undefined)", -0.257),
    ("NCCCCCNC(=O)[C@H]1C[C@H]2C(=O)N[C@@H](Cc3ccccc3)C(=O)N2[C@H]1c1cccc(OCCO)c1", 0.352),
    ("COC(=O)[C@@]1(Cc2ccc(OC)cc2)[C@H]2c3cc(C(=O)N4CCCC4)n(Cc4nc5ccccc5[nH]4)c3C[C@H]2CN1C(=O)c1ccccc1", 1.82),
    ("O=C1O[C@@H](c2ccccc2)[C@@H](c2ccccc2)N2[C@@H](c3ccc(OCCO)cc3)[C@]3(C(=O)Nc4ccc(C#CCCO)cc43)[C@@H](C(=O)NC[C@H](O)c3ccccc3)[C@H]12", 0.578),
    ("C=CC[C@]1(C(=O)NCc2ccccc2)N=C(c2ccc(OCCCO)cc2)O[C@H]1c1ccccc1CN=[N+]=[N-]", 1.54),
    ("O=C1O[C@@H](c2ccccc2)[C@@H](c2ccccc2)N2[C@@H](c3ccccc3OCCO)[C@]3(C(=O)Nc4ccc(C#CC5(O)CCCCCC5)cc43)[C@@H](C(=O)N3CCN(c4ncccn4)CC3)[C@H]12", -0.116),
    ("COc1ccc([C@H]2C[C@H]3C(Br)=C[C@@]2(CO)C(=O)[C@]32CO2)cc1", 0.269),
    ("CCCCC(=C=CC[C@@H](O)c1cccc(OCCO)c1)C[C@@H](O)c1ccccn1", 0.0548),
    ("COc1ccc([Si](C)(C)[C@@H]2[C@@H](CCn3cc([C@H](O)c4ccccc4)nn3)O[C@]3(C(=O)N(Cc4cccc(N5CCC5=O)c4)c4ccccc43)[C@H]2C)cc1", -0.205),
    ("CC(C)C(=C=CC[C@H](O)c1ccc(CO)o1)CCO", -0.57),
    ("CC1CC/C=C\\[C@H]2OC34C=CCN(c5ccc6ccccc6c5)C(=O)[C@H]3N(CCO)C(=O)[C@@H]4C2C(=O)O1 (some centres undefined)", -1.18),
    ("COc1cc2c(cc1OC)CN(C(=O)[C@H]1[C@@H]3C(=O)O[C@@H](c4ccccc4)[C@@H](c4ccccc4)N3[C@@H](c3ccccc3OCCO)[C@]13C(=O)Nc1ccc(C#CCCO)cc13)CC2", 0.775),
    ("COc1ccc(CCNC(=O)[C@@]2(C)c3ccccc3C(=O)N(c3ccc(C)cn3)[C@H]2c2ccc(CO)cc2)cc1", -0.859),
    ("C=CC[C@@]1(C(=O)N2CCCCC2)N=C(c2ccc(OCCCO)cc2)O[C@@H]1c1ccccc1CN=[N+]=[N-]", 1.6),
    ("COCCOC(=O)N1C(=O)[C@@]2(c3ccccc31)[C@H](c1ccc(OCCO)cc1)N1[C@H](c3ccccc3)[C@H](c3ccccc3)OC(=O)[C@H]1[C@@H]2C(=O)N1CCc2cc(OC)c(OC)cc2C1", 1.33),
    ("C=CCN1C(=O)[C@]2(Cc3ccccc3)N=C(c3ccc(OCCCO)cc3)O[C@@H]2c2ccccc21", 1.35),
    ("CCC(CC)C(O)C1C=CC2C(=O)N(c3ccccc3)C(=O)C2N1Nc1ccccc1 (centres undefined)", 1.62),
    ("[N-]=[N+]=Nc1ccccc1C[C@]1(C(=O)N2CCCCC2)COC(c2ccc(OCCCO)cc2)=N1", 0.708),
    ("[N-]=[N+]=NCc1ccccc1C[C@@]1(C(=O)NCC(O)CO)N=C(c2ccc(OCCCO)cc2)O[C@@H]1c1ccccc1 (some centres undefined)", 0.111),
]
